# measurement_target: Dihydroorotate dehydrogenase (quinone), mitochondrial (Plasmodium falciparum (isolate 3D7))
# assay_overview: PfDHODH enzyme inhibitors, primary screen, biochemical, C-terminal His tag, absorbance 600 nm (AID 1175);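 also: recombinant parasite enzyme with a five histidine tag at its C terminus; test concentration not given here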
# condition_context: DCIP absorbance 600 nm, higher = more signal, called active from +8 up or from −8 down
Label Y when composite z-score is at or above 0.3; otherwise label N.

C[C@@H]1ON(c2ccc(C(=O)OC(C)(C)C)cc2)[C@H](c2ccc(Br)cc2)[C@H]1C(=O)N1C(=O)OC[C@H]1Cc1ccccc1	Y
COCCOC(=O)N1C(=O)[C@@]2(c3cc(C#CC4=CCCCC4)ccc31)[C@H](c1ccccc1OCCO)N1[C@H](c3ccccc3)[C@H](c3ccccc3)OC(=O)[C@H]1[C@@H]2C(=O)N1CCc2cc(OC)c(OC)cc2C1	N
COc1ccc([Si](C)(C)[C@@H]2[C@@H](CCO)O[C@]3(C(=O)N(Cc4cccc(N5C(=O)c6cccc7cccc5c67)c4)c4ccccc43)[C@H]2C)cc1	Y
O=C1c2ccccc2[C@](Cc2ccccc2I)(C(=O)NCCN2CCOCC2)[C@H](c2ccc(CO)cc2)N1Cc1ccccc1	N

# input for lookup
For this compound, is measured composite z-score 0.3 or higher? NC(=O)NCC#Cc1ccc2c(c1)[C@]1(C(=O)N2)[C@H](C(=O)Nc2nc3ccccc3s2)[C@H]2C(=O)O[C@H](c3ccccc3)[C@H](c3ccccc3)N2[C@@H]1c1ccc(O)cc1
Y

###

# measurement_target: Follistatin-related protein 3 (Homo sapiens)
# assay_overview: FSTL3 binders on small-molecule microarrays, primary screen, biochemical, small-molecule microarray, 635 nm fluorescence (AID 1105);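 also: score merges emission near 667 nm and signal to noise per printed spot across three slides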
# condition_context: FSTL3 binding, higher = more signal
measured_metric: composite z-score
Provide a numeric answer; units are not to be included.

C=CCC(OC(C)=O)[C@@H]1[C@@H](N(Cc2ccc(-c3ccccc3)cc2)C(=O)c2cccc3ccccc23)c2cc(OCCCO)ccc2N1C(=O)Cc1ccc2ccccc2c1 (some centres undefined)	-0.0827

Which composite z-score is reported for this compound? CCOC(=O)[C@@H]1[C@@H]2C(=O)N(CC)C(=O)[C@@H]2C[C@@H]1Sc1ccccc1
0.446

GET /values?readout=composite z-score&item= CC(C)(C)OC(=O)CC[C@@]1(C(=O)O)N=C(c2ccc(OCCCO)cc2)O[C@@H]1c1ccccc1CN=[N+]=[N-]
-0.43

Fill in the blank: the reported composite z-score of C#CCNC(=O)[C@H](Cc1ccccc1)NC(=O)[C@@H](N=[N+]=[N-])C(C)C is ____.
0.335

###

# measurement_target: Epidermal growth factor receptor (Homo sapiens) (UniProt P00533)
# Sequence (P00533 whole entry, looked up): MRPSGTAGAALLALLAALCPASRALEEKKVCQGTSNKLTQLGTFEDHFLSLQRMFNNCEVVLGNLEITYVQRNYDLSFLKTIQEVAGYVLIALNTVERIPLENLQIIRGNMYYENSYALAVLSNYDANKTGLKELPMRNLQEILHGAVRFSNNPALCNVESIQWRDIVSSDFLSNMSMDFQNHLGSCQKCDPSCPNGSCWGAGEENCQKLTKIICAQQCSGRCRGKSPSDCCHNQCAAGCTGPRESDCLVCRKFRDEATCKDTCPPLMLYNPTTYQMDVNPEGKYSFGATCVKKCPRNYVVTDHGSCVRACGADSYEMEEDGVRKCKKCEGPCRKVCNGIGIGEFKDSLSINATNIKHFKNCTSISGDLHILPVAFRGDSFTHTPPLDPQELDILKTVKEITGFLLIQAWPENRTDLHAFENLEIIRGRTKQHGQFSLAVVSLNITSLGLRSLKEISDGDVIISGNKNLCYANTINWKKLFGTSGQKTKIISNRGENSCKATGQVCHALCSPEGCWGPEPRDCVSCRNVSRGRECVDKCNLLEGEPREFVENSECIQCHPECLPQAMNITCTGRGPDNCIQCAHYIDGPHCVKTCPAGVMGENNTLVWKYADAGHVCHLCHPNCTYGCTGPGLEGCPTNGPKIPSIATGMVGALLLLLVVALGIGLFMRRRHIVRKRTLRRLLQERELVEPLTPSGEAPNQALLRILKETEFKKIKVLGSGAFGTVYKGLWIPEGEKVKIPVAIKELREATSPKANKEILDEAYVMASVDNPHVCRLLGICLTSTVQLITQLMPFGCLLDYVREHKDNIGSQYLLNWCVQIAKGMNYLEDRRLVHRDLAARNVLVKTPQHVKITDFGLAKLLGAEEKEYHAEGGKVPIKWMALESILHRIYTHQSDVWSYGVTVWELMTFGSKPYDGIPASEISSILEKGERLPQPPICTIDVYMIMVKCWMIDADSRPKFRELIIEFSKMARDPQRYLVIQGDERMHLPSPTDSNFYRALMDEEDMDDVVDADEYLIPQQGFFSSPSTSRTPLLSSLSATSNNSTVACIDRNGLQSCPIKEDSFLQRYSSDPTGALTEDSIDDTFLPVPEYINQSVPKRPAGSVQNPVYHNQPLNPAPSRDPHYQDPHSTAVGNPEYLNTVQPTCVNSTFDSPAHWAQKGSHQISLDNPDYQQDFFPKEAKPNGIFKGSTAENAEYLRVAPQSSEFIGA
# assay_overview: EGFR binders on small-molecule microarrays, primary screen, biochemical, small-molecule microarray, 635 nm fluorescence (AID 1104);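 also: score merges 667 nm emission intensity with spot signal to noise over triplicate slides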
# condition_context: EGFR binding, higher = more signal
// Not fulfilled strictly below 0.3 in composite z-score; Fulfilled otherwise

Worked set:
Cc1ccc(S[C@]2(C(=O)NCC(F)(F)F)CC(=O)N(Cc3ccccc3)[C@@H]2c2ccc(CO)cc2)cc1	Not fulfilled
C[C@H]1ON(c2ccc(C(=O)OC(C)(C)C)cc2)[C@@H](c2ccc(O)cc2)[C@@H]1C(=O)N1C(=O)OC[C@@H]1c1ccccc1	Fulfilled
CCOC(=O)C1=CC[C@@H](c2ccccc2)N(S(=O)(=O)c2ccc(C)cc2)C1	Not fulfilled

Now for a further compound.
Reported composite z-score at or above 0.3? COC(=O)[C@H](Cc1ccccc1)N1CC(/C=C/C2CC2)=C[C@@H]1[C@@H](O)Cc1ccccc1
Fulfilled

###

# assay_overview: A549 cell viability effects, profiling panel, calcein-AM fluorescence, 48 h, basal (AID 1162); also: test concentration not given here
# condition_context: higher = more signal
measured_metric: z-score
# answer = number (no unit)

Could you share which z-score value was measured for CCOC(=O)[C@@H]1[C@@H]2C(=O)N(CC)C(=O)[C@@H]2C[C@@H]1Sc1ccccc1 ?
-0.992

Fill blank: measured z-score of the molecule CC(C)C(=C=CC[C@@H](O)c1ccccc1OCCO)C[C@@H](O)COCc1ccccc1 is ____.
1.03

Give its z-score value. Item: C[C@]1(C(=O)O)c2ccccc2C(=O)N(Cc2ccccc2)[C@H]1c1ccc(CO)cc1
0.277

###

# System: Fibrinogen (Alexa647-labelled)
# assay_overview: fibrinogen binders on compound microarrays, profiling panel, artefact control for SMM control-protein annotation, biochemical, small-molecule microarray, 635/667 nm fluorescence (AID 1131);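 also: z-score merges 667 nm fluorescence with per-spot signal-to-noise over triplicate slides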
# condition_context: fibrinogen-A647 binding fluorescence, higher = more signal
Short version: composite z-score at least 0.2 is MET, less is NOT MET.

Previously resolved entries follow.
Cc1ccc(C(C)CC(O)C2C=CC3C(=O)N(c4ccccc4)C(=O)C3N2Nc2ccc(C(C)C)cc2)o1 (centres undefined)	MET
CCOC(=O)C[C@H]1[C@H](OC(=O)c2ccc(-c3ccccc3)cc2)[C@@H](NC(=O)c2ccc3ccccc3c2)c2cc(OCCCO)ccc2N1C(=O)c1ccc2ccccc2n1	MET
COCCOC(=O)N1C(=O)[C@@]2(c3cc(C#CC4(O)CCCCCC4)ccc31)[C@H](C(N)=O)[C@H]1C(=O)O[C@H](c3ccccc3)[C@H](c3ccccc3)N1[C@@H]2c1ccccc1OCCO	MET

Kindly review the next compound as well.
Can C=C(C(=O)CC[C@H](OC(C)=O)c1cccc(OCCO)c1)C(C)C be said to have composite z-score at or above 0.2?
NOT MET

###

# assay_overview: HepG2 liver cancer cell viability effects, profiling panel, resazurin fluorescence, 24 h, PK04 Diversity Set (AID 1172); also: test concentration not given here
# condition_context: higher = more signal
# z-score values compiled below

Worked examples follow.
CN(C)C(=O)[C@@]1(Cc2ccccc2N=[N+]=[N-])COC(c2ccc(OCCCO)cc2)=N1	1.44
Cc1c(NC(=O)/C(C#N)=C/C=C/c2ccc(N(C)C)cc2)c(=O)n(-c2ccccc2)n1C	0.29
CN(C)CCCCNC(=O)[C@H]1C[C@H]2C(=O)N[C@@H](CCCCN(C)C)C(=O)N2[C@H]1c1cccc(OCCO)c1	1.11

Which z-score value is on record for COC(=O)[C@@]1(Cc2ccc(OC)cc2)[C@H]2c3cc(C(=O)N4CCCC4)n(CCc4cc5ccccc5[nH]4)c3C[C@H]2CN1C(=O)c1ccccc1 ?
-0.406

Consider the compound shown here: C[C@]12C(=O)N(CCCCCCO)[C@@H]3C(=O)N(c4ccc(Cl)cc4)CC=CC31O[C@@H]1/C=C\CCCOC(=O)C12 (some centres undefined) What is its recorded z-score?
-0.578

###

# assay_overview: cell viability in Huh7 cells, primary screen, cytotoxicity control for HCV replication inhibitor project, CellTiter-Glo luminescence, basal, 48 h (AID 1143);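 also: Huh7 hepatoma cells carrying a hepatitis C replication reporter with no stimulus; test concentration not given here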
# condition_context: Huh7 HCV replicon, higher = more signal, called active from +8 up or from −8 down
Listed compounds paired with reported z-score
// no unit string in output, number only

Consider the reported z-score for these compounds:
C=C(C(=O)CC[C@H](OC(C)=O)c1cccc(OCCO)c1)C(C)C	-3.05
COC(=O)[C@@]1(Cc2ccc(OC)cc2)[C@H]2c3cc(C(=O)N(C)C)n(Cc4ccccc4)c3C[C@H]2CN1C(=O)c1ccccc1	-3.07
COc1ccc(C#Cc2ccc3c(c2)[C@]2(C(=O)N3)[C@H](C(=O)N3CCc4cc(OC)c(OC)cc4C3)[C@H]3C(=O)O[C@H](c4ccccc4)[C@H](c4ccccc4)N3[C@@H]2c2ccc(O)cc2)cc1	-0.59

# evaluate next
Find the recorded z-score belonging to C=CCOC(=O)[C@H]1[C@@H]2C(=O)O[C@@H](c3ccccc3)[C@@H](c3ccccc3)N2[C@@H](c2ccc(OCCOC(=O)[C@H]3C[C@H]4C(=O)N[C@@H](CCCC[N+](C)(C)C)C(=O)N4[C@H]3c3cccc(OCCO)c3)cc2)[C@]12C(=O)Nc1ccc(I)cc12 and report it.
-0.587

###

# assay_overview: yeast growth modulation, basal conditions, primary screen, YJM789 clinical isolate, OD600, 24 h (AID 1089);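 also: growth of clinical yeast isolate S. cerevisiae YJM 789 seeded 1000 cells per well; test concentration not given here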
# condition_context: S. cerevisiae YJM789 growth, higher = more signal, called active from +8 up or from −8 down
Active and inactive are the calls of the source.
measured_metric: z-score

I would be grateful if you could share the reported z-score for O=C1O[C@H](c2ccccc2)[C@H](c2ccccc2)N2[C@H]1[C@@H](C(=O)O)[C@]1(C(=O)Nc3ccccc31)[C@H]2c1ccc(O)cc1 .
1.34 (inactive)

Name the recorded z-score for NC(=O)N1C(=O)C2C(C1=O)C1C=C(CCCO)C2C(c2cccs2)N1Cc1cc2c(cc1Br)OCO2 (stereo not drawn) .
-1.75 (inactive)

Bench note: what z-score did CC(C)N1CC=CC23O[C@@H]4C=CCCOC(=O)C4[C@H]2C(=O)N(CCO)[C@@H]3C1=O (stereo partly drawn) show?
-0.631 (inactive)

###

# assay_overview: basal RPMI8226 viability, no added stimulus, profiling panel, cell-based, calcein-AM fluorescence, 48 h, PK04 Diversity Set (AID 1166);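 also: cells grown under basal conditions without added stimulus; test concentration not given here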
# condition_context: RPMI8226 myeloma viability, higher = more signal
Recorded z-score for the following molecules
Quick one: just the number, no unit, thanks!

Recorded results for 10 molecules are shown here.
C=CC[C@@]1(C(=O)O)N=C(c2ccc(OCCCO)cc2)O[C@@H]1c1ccccc1	-0.252
COCCCNC(=O)[C@@H]1c2ccccc2C(=O)N(Cc2ccccc2C(F)(F)F)[C@H]1c1ccc(CO)cc1	0.237
COC(=O)[C@@]1(Cc2ccc(OC)cc2)[C@H]2c3cc(C(=O)N(C)C)n(CCc4c[nH]c5ccc(O)cc45)c3C[C@H]2CN1C(=O)c1ccccc1	-1.32
O=C1O[C@@H](c2ccccc2)[C@@H](c2ccccc2)N2[C@@H](c3ccc(O)cc3)[C@]3(C(=O)Nc4ccc(C#CC5=CCCCC5)cc43)[C@@H](C(=O)N3CCN(c4ncccn4)CC3)[C@H]12	-2.78
CN(C)CCCNC(=O)[C@@]1(c2ccc([N+](=O)[O-])cc2)CC(=O)N(CC23CC4CC(CC(C4)C2)C3)[C@@H]1c1ccc(CO)cc1	-4.03
COc1ccc([Si](C)(C)[C@@H]2[C@@H](CCn3cc([C@H](O)c4ccccc4)nn3)O[C@]3(C(=O)N(Cc4ccc(N5CCOC5=O)cc4)c4ccccc43)[C@H]2C)cc1	-1.3
COc1cc(CO)cc(I)c1O[C@H]1C=C(C(=O)NCCO)C[C@@H](NCc2ccccc2F)[C@@H]1O	0.12
C=CC[C@@]12N=C(c3ccc(OCCCO)cc3)O[C@@H]1c1ccccc1N(CCS(=O)(=O)c1ccccc1)C2=O	-1.02
CCCCC(CC)C(O)C1C=CC2C(=O)N(c3ccccc3)C(=O)C2N1Nc1ccc([N+](=O)[O-])cc1 (centres undefined)	-1.1
CC(C)C(O)C1C=CC2C(=O)N(C)C(=O)C2N1Nc1ccccc1 (centres undefined)	-0.283

# input molecule: C=CCN1C(=O)[C@@]2(O[C@@H](CCO)[C@H]([Si](C)(C)c3ccc(OC)cc3)[C@H]2C)c2cc(N3C(=O)c4ccccc4Oc4ccccc43)ccc21 ; wanted: its z-score
-4.12

Item COCCOC(=O)N1C(=O)[C@@]2(c3cc(C#CC4=CCCCC4)ccc31)[C@H](C(=O)N1CCN(c3ncccn3)CC1)[C@H]1C(=O)O[C@H](c3ccccc3)[C@H](c3ccccc3)N1[C@@H]2c1ccc(O)cc1 has what recorded z-score?
-0.802

Entry C=C(COC)/C(=C/C[C@@H](OC(=O)c1ccncc1)c1ccc(CO)o1)c1cnc2ccccc2c1 : reported z-score = ?
0.575

Which z-score is listed for CCOC(=O)[C@@H]1[C@@H]2C(=O)N(CC)C(=O)[C@@H]2C[C@@H]1Sc1ccccc1 ?
-0.0967

May I ask what z-score has been recorded for NCCCCCCNC(=O)[C@@H]1C[C@@H]2C(=O)N3CCC[C@H]3C(=O)N2[C@@H]1c1ccc(O)cc1 ?
-0.292

Give its z-score value. Item: COc1ccc([Si](C)(C)[C@@H]2[C@@H](CC(=O)N3CCC[C@H]3CO)O[C@]3(C(=O)N(Cc4ccc(N5C(=O)c6cccc7cccc5c67)cc4)c4ccccc43)[C@H]2C)cc1
-4.35

Given the molecule CCOC(=O)C[C@H]1[C@H](OC(=O)c2ccccc2-c2ccccc2)[C@@H](NC(=O)c2ccc3ccccc3n2)c2cc(OCCCO)ccc2N1C(=O)c1ccc2ccccc2n1 , what is its reported z-score?
-0.237

Fill in the blank: the reported z-score of C=CCC(OC(C)=O)[C@@H]1[C@@H](N(Cc2ccc(-c3ccccc3)cc2)C(=O)c2cccc3ccccc23)c2cc(OCCCO)ccc2N1C(=O)Cc1ccc2ccccc2c1 (some centres undefined) is ____.
-0.183

Would you kindly share the measured z-score for COC(=O)[C@H](Cc1ccccc1)N1CC(/C=C/C2CC2)=C[C@@H]1[C@@H](O)Cc1ccccc1 ?
-3.07

Fill in: z-score of COc1ccc(C#Cc2ccc3c(c2)[C@]2(C(=O)N3)[C@H](C(=O)N3CCc4cc(OC)c(OC)cc4C3)[C@H]3C(=O)O[C@H](c4ccccc4)[C@H](c4ccccc4)N3[C@@H]2c2ccc(O)cc2)cc1 is ___
-0.293

# query: z-score of entry C=CC[C@]1(C(=O)N(C)C)N=C(c2ccc(OCCCO)cc2)O[C@H]1c1ccccc1N=[N+]=[N-]
-1.85
